Assay: Drug metabolism in human liver microsomes harboring CYP2B6*1/*6 genotype assessed as intrinsic clearance for CYP2B6 variant-mediated 8-hydroxyefavirenz metabolite formation measured per mg protein after 15 mins by LC/MS/MS analysis
Type: ADME
Details: 0.25 h
Measure: CLH (µL/min/mg)

- Compound: "O=C1Nc2ccc(Cl)cc2[C@@](C#CC2CC2)(C(F)(F)F)O1 [EFAVIRENZ]"
  Numeric value: 6.4
